Target: T1, recombinant biotinylated human PAR2 extracellular domain (residues 1-75), N-terminal AviTag, C-terminal Flag … (human, UniProt P55085 26-75, biotin on the AviTag (enzymatic biotinylation))
T1 construct: also called Bio-human-PAR2 ECD; human PAR2 ECD; not shown: N-terminal AviTag (Avidity LLC); C-terminal Flag and poly Histidine tags
T1 sequence (P55085 26-75): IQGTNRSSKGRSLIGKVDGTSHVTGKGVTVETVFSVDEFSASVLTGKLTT
Assay: HTRF competition with Par0067 IgG, pH 6.0, scFv
Protocol: 5 μl/well of the appropriate pH 4.44 nM Par0067 IgG solution was added to all wells of the relevant assay plate (pH 7.4 and pH 6.0). […] For multipoint dose response curves % Specific Binding values were plotted versus test purified antibody concentration (scFv or IgG). IC₅₀ values were determined via a sigmoidal dose response inhibition variable slope curve fit (4 parameter logistic equation) using Graphpad Prism Software.
Listed next: entries and their corresponding IC50.
Write the answer as a number in nM, unit excluded.

[
  {
    "BINDER": "PaB670066 scFv (scFv, V domains shown, purified scFv; also called ZZ1KX6-D05) VH: EVQLLESGGGLVQPGGSLRLSCAASGFTFSSYAMNWVRQAPGKGLEWVSTISYSGSLISYADSVKGRFTISRDNSKNTLYLQMNSLRAEDTAVYYCARINNDPMDVWGQGTLVTVSS VL: SIELTQPPSVSVSPGQTASITCSGDNLGKKYVQWYQQKPGQSPVLVIYDDSNRPSGIPERFSGSNSGNTATLTISGTQAMDEADYYCHHWHGNHHTGETNHFGGGTKLTVL",
    "ENDPOINT RESULT": 487
  },
  {
    "BINDER": "PaB670102 scFv (scFv, V domains shown, purified scFv; also called ZZ1PXS-F08) VH: EVQLLESGGGLVQPGGSLRLSCAASGFTFSSYAMNWVRQAPGKGLEWVSTISYSGSLISYADSVKGRFTISRDNSKNTLYLQMNSLRAEDTAVYYCARINHDPMDHWGQGTLVTVSS VL: SIELTQPPSVSVSPGQTASITCSGDNLGKKYVQWYQQKPGQSPVLVIYDDSNRPSGIPERFSGSNSGNTATLTISGTQAMDEADYYCQTWDGNPTTGETNVFGGGTKLTVL",
    "ENDPOINT RESULT": 13.7
  },
  {
    "BINDER": "PaB670090 scFv (scFv, V domains shown, purified scFv; also called ZZ1ODR-F02) VH: EVQLLESGGGLVQPGGSLRLSCAASGFTFSSYAMNWVRQAPGKGLEWVSTISYHGHHISHADHVKHRFTISRDNSKNTLYLQMNSLRAEDTAVYYCARINNDPMDVWGQGTLVTVSS VL: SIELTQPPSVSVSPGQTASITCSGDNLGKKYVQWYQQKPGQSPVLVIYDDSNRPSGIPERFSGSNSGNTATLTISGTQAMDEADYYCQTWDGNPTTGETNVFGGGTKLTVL",
    "ENDPOINT RESULT": 85.5
  }
]

Kindly consider the entry below.
Form field: reported IC50 of PaB670107 scFv (scFv, V domains shown, purified scFv; also called ZZ1RD3-D09) VH: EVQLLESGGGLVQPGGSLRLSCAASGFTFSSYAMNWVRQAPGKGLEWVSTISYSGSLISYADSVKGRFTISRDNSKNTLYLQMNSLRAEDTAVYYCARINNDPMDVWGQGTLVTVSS VL: SIELTQPPSVSVSPGQTASITCSGDNLGKKYVQWYQQKPGQSPVLVIYDDSNRPSGIPERFSGSNSGNTATLTISGTQAMDEADYYCHHWHHNPTHHETNVFGGGTKLTVL
464
